B1: CPEB3 Ribozyme (parent)
chain: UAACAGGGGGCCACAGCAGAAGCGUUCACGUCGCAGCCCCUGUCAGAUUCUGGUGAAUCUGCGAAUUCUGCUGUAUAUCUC

Variants of: B1
Experiment: self-cleavage, relative activity (ratio to wild type); higher = more cleavage; in vitro, sequencing
measured-property: self-cleavage
Answer field: number only, no words.

1) G36U U41A	0.29
2) U54C A77U	1.07
3) A28G U43C	0.35
4) G9A A28G	0.24
5) A18G U48C	0.31
6) A18U A45U	0.25

In the following, a different variant is considered.
Query :: Report self-cleavage, nothing else, for this variant: A21U A45C
Result :: 0.1
